IC50 by entry:
Assayed system: NRAS G12C (Homo sapiens (Human), UniProt P01111+P62937, G12C)
Sequence (P01111 whole entry G12C): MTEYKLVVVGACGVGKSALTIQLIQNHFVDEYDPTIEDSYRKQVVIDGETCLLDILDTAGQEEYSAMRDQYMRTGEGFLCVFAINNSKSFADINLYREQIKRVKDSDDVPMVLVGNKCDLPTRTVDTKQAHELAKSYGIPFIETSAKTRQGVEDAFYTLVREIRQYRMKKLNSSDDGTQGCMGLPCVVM
Sequence (P62937 whole entry): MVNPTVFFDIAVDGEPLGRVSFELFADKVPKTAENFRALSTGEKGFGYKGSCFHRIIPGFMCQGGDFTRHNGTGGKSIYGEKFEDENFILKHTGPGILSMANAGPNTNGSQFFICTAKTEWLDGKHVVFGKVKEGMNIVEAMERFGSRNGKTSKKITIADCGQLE
Protocol summary: Ras-Raf (BRAF RBD) disruption / FRET / MOA assay, NRAS G12C
Format: biochemical
Experimental setup: read-out: IC50* NRAS G12C FRET data

{"Compound": "CO[C@@H](C)c1ncccc1-c1c2c3cc(ccc3n1CC(F)(F)F)N1CCO[C@@H](C[C@H](NC(=O)[C@H](C(C)C)N3CC[C@]4(CCN(C(=O)C#CC(C)(C)N(C)C)C4)C3=O)C(=O)N3CCC[C@H](N3)C(=O)OCC(C)(C)C2)C1 (atropisomer, axis not shown)", "Assayed system": "NRAS G12C (Homo sapiens (Human), UniProt P01111+P62937, G12C)", "Endpoint label": "IC50", "Test value": "< 10 nM"}

Q) # query: IC50 of entry CCn1c(-c2cccnc2[C@H](C)OC)c2c3cc(ccc31)-c1csc(n1)C[C@H](NC(=O)C[C@H](C)OC1CN(C(=O)C#CC(C)(C)N(C)C)C1)C(=O)N1CCC[C@H](N1)C(=O)OCC(C)(C)C2 (atropisomer, axis not shown)
A) 10 to 100 nM

----------
Assayed system: KRAS WT (Homo sapiens (Human), UniProt P01116+P62937)
Sequence (P01116-2 other isoform, or with tags, fused parts or gaps): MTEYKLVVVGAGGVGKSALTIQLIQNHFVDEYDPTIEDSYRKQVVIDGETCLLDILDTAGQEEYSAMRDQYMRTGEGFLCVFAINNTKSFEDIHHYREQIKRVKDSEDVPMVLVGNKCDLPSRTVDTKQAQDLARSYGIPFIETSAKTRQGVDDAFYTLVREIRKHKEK
Sequence (P62937 whole entry): as the sequence (P62937 whole entry) above
Protocol summary: Ras-Raf (BRAF RBD) disruption / FRET / MOA assay, KRAS WT
Assay type: biochemical
Experimental setup: read-out: IC50* KRAS WT FRET data
pIC50: −log10 of the molar value.
pIC50 by entry:

{"Molecule": "CCn1c(-c2cccnc2[C@H](C)OC)c2c3cc(ccc31)-c1cccc(c1)C[C@H](NC(=O)[C@H](C(C)C)N(C)C(=O)[C@H]1CCN(S(=O)(=O)C=C(C)C)C1)C(=O)N1CCC[C@H](N1)C(=O)OCC(C)(C)C2 (atropisomer, axis not shown)", "pIC50": "< 5.00"}
{"Molecule": "C=CC(=O)N1C[C@@H](C)N(C(=O)N(C)[C@H](C(=O)N[C@H]2Cc3nc(cs3)-c3ccc4c(c3)c(c(-c3cccnc3[C@H](C)OC)n4CC)CC(C)(C)COC(=O)[C@@H]3CCCN(N3)C2=O)C(C)C)[C@@H](C)C1 (atropisomer, axis not shown)", "pIC50": "7.00 to 8.00"}
{"Molecule": "CCn1c(-c2cccnc2[C@H](C)OC)c2c3cc(ccc31)-c1cccc(c1)C[C@H](NC(=O)[C@@H](COC1CN(C(=O)C#CC(C)(C)N(C)CCO)C1)C(C)C)C(=O)N1CCC[C@H](N1)C(=O)OCC(C)(C)C2 (atropisomer, axis not shown)", "pIC50": "< 5.00"}
{"Molecule": "C=CC(=O)N1C[C@H](C(=O)N(C)[C@H](C(=O)N[C@H]2Cc3cccc(c3)-c3ccc4c(c3)c(c(-c3cccnc3[C@H](C)OC)n4CC)CC(C)(C)COC(=O)[C@@H]3CCCN(N3)C2=O)C(C)C)[C@@H](C)C1 (atropisomer, axis not shown)", "pIC50": "5.00 to 6.00"}

Q) # query: pIC50 of entry C=CC(=O)N1CCO[C@]2(CCN(C(=O)N(C)[C@H](C(=O)N[C@H]3Cc4nc(cs4)-c4ccc5c(c4)c(c(-c4cccnc4[C@H](C)OC)n5CC(F)(F)F)CC(C)(C)COC(=O)[C@@H]4CCCN(N4)C3=O)C(C)C)C2)C1 (atropisomer, axis not shown)
A) 5.00 to 6.00

Q) Subsequent entry: C=CC(=O)NCCN1CCN(C(=O)N(C)[C@H](C(=O)N[C@H]2Cc3nc(cs3)-c3ccc4c(c3)c(c(-c3cccnc3[C@H](C)OC)n4CC)CC(C)(C)COC(=O)[C@@H]3CCCN(N3)C2=O)C(C)C)CC1 (atropisomer, axis not shown)
A) 6.00 to 7.00

Q) Subsequent entry: CO[C@@H](C)c1ncccc1-c1c2c3cc(ccc3n1CC(F)(F)F)-c1cccc(c1)C[C@H](NC(=O)[C@H](C(C)C)N(C)C(=O)N1CCC3(CC1)CN(C(=O)/C=C/CN(C)C)C3)C(=O)N1CCC[C@H](N1)C(=O)OCC(C)(C)C2 (atropisomer, axis not shown)
A) 6.00 to 7.00
